Source: paper PMC9482650

- Tested Target: PICK1, Q9NRD5
- Sequence (Q9NRD5 17-115): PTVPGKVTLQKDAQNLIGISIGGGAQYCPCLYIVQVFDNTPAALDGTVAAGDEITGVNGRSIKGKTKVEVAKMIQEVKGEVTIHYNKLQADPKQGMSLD
- Assay Method Text: holdup assay
- Set-up: key: below the threshold = too weak to quantify, mostly under pKd 3.1 to 4
- Measurement Parameters: plain residues with an end cap or a label only (N-terminal biotin on a linker: ado-ado)
Exercise: for every item that follows, state its recorded pKd.
Reply briefly: the number, and no unit.

I'd like to know its pKd. The binder in question is ILRKSTTTTV [PRR16, Q569H4]
3.95

Could you share which pKd value was measured for QSYPSKHDYV [CLDN18, P56856] ?
4.26

I'd like to know its pKd. The binder in question is PTPDLPQTRV [KLHDC7A, Q5VTJ3]
4.18

What value of pKd has been reported for the following binder? SFISKKEWYV [NECTIN1, Q15223]
4.24
